- measured_on: histidine-binding protein (HisBP) (Escherichia coli, UniProt P0AEU0)
- Sequence (P0AEU0 23-260): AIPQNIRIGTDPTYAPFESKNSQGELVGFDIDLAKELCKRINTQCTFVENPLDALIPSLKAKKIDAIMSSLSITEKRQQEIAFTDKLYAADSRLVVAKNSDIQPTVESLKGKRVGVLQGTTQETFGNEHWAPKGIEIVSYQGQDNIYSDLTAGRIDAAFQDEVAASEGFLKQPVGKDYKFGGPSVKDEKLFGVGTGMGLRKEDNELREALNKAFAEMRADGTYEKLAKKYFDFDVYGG
- experiment_description: biochemical
- condition_info: K D fitted to SAXS V R titration curves, AustSynch, 20s exposure, […] 10^13 photons, HisBP 19 µM
metric: pKd
Expect pKd as a plain number equal to -log10 of the molar concentration.

For orientation, consider the following solved cases.
molecule: NCCCC[C@H](N)C(=O)O [Lys, lysine]
measured_on: histidine-binding protein (HisBP) (Escherichia coli, UniProt P0AEU0)
pKd: 3.96
//
molecule: N[C@@H](Cc1c[nH]cn1)C(=O)O [His, histidine]
measured_on: histidine-binding protein (HisBP) (Escherichia coli, UniProt P0AEU0)
pKd: 7.21

API: the following record is the query input.
Ask: For the molecule N=C(N)NCCC[C@H](N)C(=O)O [Arg, arginine] , what pKd is on record?
Reply: 5.55

###

- measured_on: histidine-binding protein (HisBP) (Escherichia coli)
- experiment_description: biochemical
- condition_info: KD fitted to SAXS Rg curves, Diamond, 40s exposure, HisBP 40 µM
metric: pKd
Expect pKd as a plain number equal to -log10 of the molar concentration.

smiles_entry: N=C(N)NCCC[C@H](N)C(=O)O
metric: pKd
observed_result: 5.82

API: the following record is the query input.
Ask: For the compound NCCCC[C@H](N)C(=O)O , what pKd is on record?
Reply: 2.82

###

Measured pKd accompanies every entry in the list below.
- measured_on: histidine-binding protein (HisBP) (Escherichia coli, UniProt P0AEU0)
- experiment_description: biochemical
- condition_info: KD fitted to SAXS Rg curves, ESRF, 5s exposure, HisBP 160 µM
Expect pKd as a plain number equal to -log10 of the molar concentration.

smiles_entry: N=C(N)NCCC[C@H](N)C(=O)O
pKd: 6.41

Ask: Param readout= pKd; system= histidine-binding protein (HisBP) (Escherichia coli, UniProt P0AEU0); entry= NCCCC[C@H](N)C(=O)O ; returns value.
Reply: 4.15

Ask: Param readout= pKd; system= histidine-binding protein (HisBP) (Escherichia coli, UniProt P0AEU0); entry= N[C@@H](Cc1c[nH]cn1)C(=O)O ; returns value.
Reply: 6.21

###

- measured_on: histidine-binding protein (HisBP) (Escherichia coli, UniProt P0AEU0)
- experiment_description: biochemical
- condition_info: KD fitted to SAXS Rg curves, AustSynch, 20s exposure, HisBP 76 µM
metric: Kd (µM)
State the answer as a number, implicitly in µM.

For orientation, consider the following solved cases.
smiles_entry: N[C@@H](Cc1c[nH]cn1)C(=O)O
measured_on: histidine-binding protein (HisBP) (Escherichia coli, UniProt P0AEU0)
Kd [µM]: 1.7
//
smiles_entry: NCCCC[C@H](N)C(=O)O
measured_on: histidine-binding protein (HisBP) (Escherichia coli, UniProt P0AEU0)
Kd [µM]: 0.031

Ask: For the molecule N=C(N)NCCC[C@H](N)C(=O)O , what Kd is on record?
Reply: 1.6

###

Measured Kd accompanies every entry in the list below.
- measured_on: histidine-binding protein (HisBP) (Escherichia coli, UniProt P0AEU0)
- experiment_description: biochemical
- condition_info: KD fitted to SAXS χlin. curves, Diamond, 40s exposure, HisBP 40 µM
State the answer as a number, implicitly in µM.

compound: N=C(N)NCCC[C@H](N)C(=O)O [Arg, arginine]
measured_on: histidine-binding protein (HisBP) (Escherichia coli, UniProt P0AEU0)
display_unit: µM
Kd: 23

Ask: For the compound N[C@@H](Cc1c[nH]cn1)C(=O)O [His, histidine] , what Kd is on record?
Reply: 4.3

Ask: For the compound NCCCC[C@H](N)C(=O)O [Lys, lysine] , what Kd is on record?
Reply: 4500

###

Measured pKd accompanies every entry in the list below.
- measured_on: histidine-binding protein (HisBP) (Escherichia coli, UniProt P0AEU0)
- experiment_description: biochemical
- condition_info: KD fitted to SAXS Vc curves, Diamond, 40s exposure, HisBP 80 µM
Expect pKd as a plain number equal to -log10 of the molar concentration.

smiles_entry: N=C(N)NCCC[C@H](N)C(=O)O
pKd: 7.42

API: the following record is the query input.
Ask: For the molecule N[C@@H](Cc1c[nH]cn1)C(=O)O , what pKd is on record?
Reply: 5.00

###

Measured pKd accompanies every entry in the list below.
- measured_on: histidine-binding protein (HisBP) (Escherichia coli)
- experiment_description: biochemical
- condition_info: KD fitted to SAXS Vc curves, AustSynch, 20s exposure, HisBP 38 µM
Expect pKd as a plain number equal to -log10 of the molar concentration.

Ask: For the compound NCCCC[C@H](N)C(=O)O , what pKd is on record?
Reply: 3.35

Ask: For the compound N[C@@H](Cc1c[nH]cn1)C(=O)O , what pKd is on record?
Reply: 5.28

Ask: For the compound N=C(N)NCCC[C@H](N)C(=O)O , what pKd is on record?
Reply: 5.43

###

- measured_on: histidine-binding protein (HisBP) (Escherichia coli)
- experiment_description: biochemical
Measured pKd accompanies every entry in the list below.
Expect pKd as a plain number equal to -log10 of the molar concentration.

Ask: For the compound NCCCC[C@H](N)C(=O)O , what pKd is on record?
Reply: 4.21

Ask: For the compound N[C@@H](Cc1c[nH]cn1)C(=O)O , what pKd is on record?
Reply: 7.32

Ask: For the compound N=C(N)NCCC[C@H](N)C(=O)O , what pKd is on record?
Reply: 5.69

###

- measured_on: histidine-binding protein (HisBP) (Escherichia coli)
- experiment_description: biochemical
- condition_info: KD fitted to SAXS Vc curves, AustSynch, 20s exposure, HisBP 76 µM
metric: Kd (µM)
State the answer as a number, implicitly in µM.

For orientation, consider the following solved cases.
smiles_entry: NCCCC[C@H](N)C(=O)O
display_unit: µM
Kd: 9.5

smiles_entry: N=C(N)NCCC[C@H](N)C(=O)O
display_unit: µM
Kd: 2

Ask: For the compound N[C@@H](Cc1c[nH]cn1)C(=O)O , what Kd is on record?
Reply: 25

###

- measured_on: histidine-binding protein (HisBP) (Escherichia coli)
- experiment_description: biochemical
- condition_info: K D fitted to SAXS V R titration curves, AustSynch, 20s exposure, […] 10^13 photons, HisBP 76 µM
metric: Kd (µM)
State the answer as a number, implicitly in µM.

For orientation, consider the following solved cases.
compound: NCCCC[C@H](N)C(=O)O [Lys, lysine]
display_unit: µM
Kd: 95

compound: N=C(N)NCCC[C@H](N)C(=O)O [Arg, arginine]
display_unit: µM
Kd: 5.5

API: the following record is the query input.
Ask: For the compound N[C@@H](Cc1c[nH]cn1)C(=O)O [His, histidine] , what Kd is on record?
Reply: 3.6

###

- measured_on: histidine-binding protein (HisBP) (Escherichia coli, UniProt P0AEU0)
- experiment_description: biochemical
- condition_info: KD fitted to SAXS χlin. curves, DESY, 4s exposure, HisBP 20 µM
metric: pKd
Expect pKd as a plain number equal to -log10 of the molar concentration.

Ask: For the molecule NCCCC[C@H](N)C(=O)O [Lys, lysine] , what pKd is on record?
Reply: 5.68

Ask: For the molecule N=C(N)NCCC[C@H](N)C(=O)O [Arg, arginine] , what pKd is on record?
Reply: 5.39

Ask: For the molecule N[C@@H](Cc1c[nH]cn1)C(=O)O [His, histidine] , what pKd is on record?
Reply: 5.54

###

Measured Kd accompanies every entry in the list below.
- measured_on: histidine-binding protein (HisBP) (Escherichia coli, UniProt P0AEU0)
- experiment_description: biochemical
- condition_info: KD fitted to SAXS Vc curves, DESY, 4s exposure, HisBP 40 µM
State the answer as a number, implicitly in µM.

molecule: N[C@@H](Cc1c[nH]cn1)C(=O)O [His, histidine]
display_unit: µM
Kd: 19

API: the following record is the query input.
Ask: For the molecule NCCCC[C@H](N)C(=O)O [Lys, lysine] , what Kd is on record?
Reply: 2.8

###

- measured_on: histidine-binding protein (HisBP) (Escherichia coli)
- experiment_description: biochemical
- condition_info: KD fitted to SAXS χlin. curves, AustSynch, 20s exposure, HisBP 76 µM
metric: Kd

For orientation, consider the following solved cases.
compound: N[C@@H](Cc1c[nH]cn1)C(=O)O [His, histidine]
metric: Kd
observed_result: 5.1 µM

compound: N=C(N)NCCC[C@H](N)C(=O)O [Arg, arginine]
metric: Kd
observed_result: 11 µM

API: the following record is the query input.
Ask: For the compound NCCCC[C@H](N)C(=O)O [Lys, lysine] , what Kd is on record?
Reply: 130 µM
